Tested on: OVCAR-3 ovarian
Test Description: NCI-60 one-dose screen, 48 h
Particulars: 10 µM unless noted
Compounds without any hit were thinned out: in the full panel of roughly 83,000, 20% have a hit. Calls of active or inactive are those of the source. The calls were made as follows: active = growth percent below 10; inactive = the rest.
Reply using exactly one outcome from active, inactive

Compound | Tested System | Category Label
CCNC(=O)C#Cc1ccc2c(C(=Nc3ccc(CN(C)C)cc3)c3ccccc3)c(O)[nH]c2c1 | OVCAR-3 ovarian | inactive
CC1(O)CCC2CC3OC3(C)CCC3OC3(C)C(O)CC1C2(C)C (stereo not given) | OVCAR-3 ovarian | inactive
NC(=O)Nc1cc(-c2cccc(F)c2)sc1C(=O)N[C@H]1CCCNC1 | OVCAR-3 ovarian | active
CNC(=O)c1cc(COc2nnc(Nc3ccc(Cl)cc3)c3ccoc23)ccn1 | OVCAR-3 ovarian | inactive
Cc1nn(-c2nc3ccccc3[nH]2)c2c1C(c1ccc(O)cc1)CC(=O)N2 (stereo not given) | OVCAR-3 ovarian | inactive
COc1ccc(-n2c(=O)c3ccccc3n(Cc3ccc(C(=O)NO)cc3)c2=O)cc1 | OVCAR-3 ovarian | active
O=C(Nc1ccc(Nc2ncnc3sc4c(c23)CCOC4)cc1)Nc1ccc(Cl)c(C(F)(F)F)c1 | OVCAR-3 ovarian | inactive
CC[C@@H]1C(=O)N(C)c2cnc(Nc3ccc(C(=O)NC4CCC(N5CCN(CC6CC6)CC5)CC4)cc3OC)nc2N1C(C)C (stereo not given in full) | OVCAR-3 ovarian | active

Ask: Hi team, can someone confirm the assay call for `COc1cnc2c(c1)C(=O)c1c-2n(CCCn2ccnc2)c(=O)c2cc(Cl)ccc12` ?
Reply: active

###

System: HCT-116 colon
Test Description: NCI-60 one-dose screen, 48 h
Particulars: 10 µM unless noted
Procedure: Growth inhibition of the HCT-116 human tumor cell line is measured as a screen for anti-cancer activity. Cells are grown in 96 well plates and exposed to the test compound for 48 hours. Compounds are tested at a single concentration, which is 10^-5 M for most compounds. The reported endpoint is percent growth (GI% or GIPRCNT), where numbers from 0 - 100% represent growth inhibition, and numbers from -100% - 0 represent cell death. For example, a value of 40 represents 60% growth inhibition. […]
About 83,000 compounds went through this panel and 20% of them were active in at least one assay; those are over-represented in the sample as a whole. Active and inactive are the calls of the source. The calls were made as follows: active = growth percent below 10; inactive = the rest.
Respond only with the outcome that fits, drawn from active, inactive

Consider the worked cases shown below.
Compound | Tested System | Category Label
COCc1c(-c2ccc(NC(=O)Nc3cc(C(F)(F)F)ccc3F)c(F)c2)c2c(N)ncnn2c1CN1CCOCC1 | HCT-116 colon | active
C=C1C(=O)O[C@H]2[C@H]1CC/C(Cn1cc(-c3cc(C)c(C)cc3C)nn1)=C\CC[C@@]1(C)O[C@@H]21 | HCT-116 colon | active

Ask: Short answer needed: outcome of this test for `Cc1cnc(NC(=O)Nc2cc(Br)c(C)cc2OC[C@@H]2CNCCO2)cn1` ?
Reply: inactive

Ask: // return assay outcome for `Cc1cc(N(CCNc2ccnc3cc(Cl)ccc23)Cc2ccc3c(c2)OCO3)nc(N2CCN(C)CC2)n1`
Reply: active

Ask: GET /call?item= O=C1CC(c2ccc3c(c2)OCO3)c2ncn(-c3ccc(Cl)cc3)c2N1 (stereo not given) returns the recorded outcome of this test.
Reply: inactive

Origin of measurements: PubChem BioAssay (NCI)
